Documented pIC50 across a set of compounds
# Method notes: Inhibition of Streptococcus pneumoniae methionine aminopeptidase
pIC50: −log10 of the molar value. Residues, ends and D or L forms follow the SMILES beside them. *: point of attachment. Cbz = O=C(OCc1ccccc1)*
Assay metric: pIC50

1. CN1C(=O)[C@@H](NC(=O)C(C)(C)NC(=O)OCc2ccccc2)CC=C[C@@H]1c1ccccc1 | < 3.70
2. C[C@H](NC(=O)[C@H](C)NC(=O)OCc1ccccc1)C(N)=O (Cbz-Ala-Ala-NH2) | < 3.70
3. C[C@@H](C(=O)N[C@H]1CC=C[C@H](c2ccccc2)N(C)C1=O)N(C)C(=O)OCc1ccccc1 | < 3.70
4. C[C@H](NC(=O)Cc1cc(F)cc(F)c1)C(=O)N[C@H]1CC=C[C@H](c2ccccc2)N(C)C1=O | 4.34
5. C[C@H](NC(=O)[C@H](N)c1ccccc1)C(=O)N[C@H]1CC=C[C@H](C2CCCCC2)N(C)C1=O | 5.40
6. C[C@H](NC(=O)OCc1ccccc1)C(=O)N[C@H]1CC=C[C@@H](c2ccccc2)N(C)C1=O | < 3.70

* * *

Documented logD across a set of compounds
# Method notes: Lipophilicity, log D of the compound
# Format: physicochemical
# Assay context: octanol/water
Assay metric: logD

1. C[C@H](NC(=O)OCc1ccccc1)C(=O)N[C@H]1CC=C[C@H](c2ccccc2)N(C)C1=O | 1.65
2. C[C@H](NC(=O)Cc1cc(F)cc(F)c1)C(=O)N[C@H]1CC=C[C@H](c2ccccc2)N(C)C1=O | 2.6
3. C[C@H](NC(=O)[C@@H](N)Cc1ccccc1)C(=O)N[C@H]1CC=C[C@H](C2CCCCC2)N(C)C1=O | 2.2
4. C[C@H](NC(=O)[C@@H](N)c1ccccc1)C(=O)N[C@H]1CC=C[C@H](C2CCCCC2)N(C)C1=O | 1.98
5. C[C@H](NC(=O)[C@@H](N)c1cccc(Cl)c1)C(=O)N[C@H]1CC=C[C@H](C2CCCCC2)N(C)C1=O | 2.69

* * *

Documented IC50 across a set of compounds
# Method notes: Inhibition of Streptococcus pneumoniae methionine aminopeptidase
Assay metric: IC50 (µM)

1) CN1C(=O)[C@@H](NC(=O)[C@H](CO)NC(=O)OCc2ccccc2)CC=C[C@@H]1c1ccccc1 | 71.4
2) C[C@H](NC(=O)OCc1ccccc1)C(=O)N[C@H]1CC=C[C@H](c2ccccc2)N(C)C1=O | 7.4
3) C[C@H](NC(=O)[C@@H](N)c1ccccc1)C(=O)N[C@H]1CC=C[C@H](C2CCCCC2)N(C)C1=O | 0.12
4) C[C@H](NC(=O)[C@@H](N)Cc1ccccc1)C(=O)N[C@H]1CC=C[C@H](C2CCCCC2)N(C)C1=O | 9.7
5) C[C@H](NC(=O)[C@@H](N)c1cccc(Cl)c1)C(=O)N[C@H]1CC=C[C@H](C2CCCCC2)N(C)C1=O | 0.3

* * *

Documented fraction unbound across a set of compounds
# Method notes: Unbound fraction in plasma (unknown origin)
# Assay type: ADME, cell-free
Assay metric: fraction unbound

1. C[C@H](NC(=O)[C@@H](N)c1ccccc1)C(=O)N[C@H]1CC=C[C@H](C2CCCCC2)N(C)C1=O | 0.108
2. C[C@H](NC(=O)[C@@H](N)c1cccc(Cl)c1)C(=O)N[C@H]1CC=C[C@H](C2CCCCC2)N(C)C1=O | 0.016
3. C[C@H](NC(=O)OCc1ccccc1)C(=O)N[C@H]1CC=C[C@H](c2ccccc2)N(C)C1=O | 0.027
4. C[C@H](NC(=O)Cc1cc(F)cc(F)c1)C(=O)N[C@H]1CC=C[C@H](c2ccccc2)N(C)C1=O | 0.051
5. C[C@H](NC(=O)[C@@H](N)Cc1ccccc1)C(=O)N[C@H]1CC=C[C@H](C2CCCCC2)N(C)C1=O | 0.109

* * *

Documented pIC50 across a set of molecules
# Method notes: Inhibition of Haemophilus influenzae methionine aminopeptidase
pIC50: −log10 of the molar value. Residues, ends and D or L forms follow the SMILES beside them. *: point of attachment. Cbz = O=C(OCc1ccccc1)*
Assay metric: pIC50

1) C[C@H](NC(=O)[C@H](C)NC(=O)OCc1ccccc1)C(N)=O (Cbz-Ala-Ala-NH2) | < 3.70
2) C[C@H](NC(=O)OCc1ccccc1)C(=O)N[C@H]1CC=C[C@H](c2ccccc2)N(C)C1=O | 4.95
3) C[C@@H](C(=O)N[C@H]1CC=C[C@H](c2ccccc2)N(C)C1=O)N(C)C(=O)OCc1ccccc1 | < 3.70
4) C[C@H](N)C(=O)N[C@@H](C)C(=O)N[C@H]1CC=C[C@H](C2CCCCC2)N(C)C1=O | < 3.70
5) CC(=O)N[C@@H](C)C(=O)N[C@H]1CC=C[C@H](c2ccccc2)N(C)C1=O | < 3.70
6) C[C@H](NC(=O)[C@H](N)c1ccccc1)C(=O)N[C@H]1CC=C[C@H](C2CCCCC2)N(C)C1=O | 4.81

* * *

Documented microsomal CLint across a set of molecules
# Method notes: Intrinsic clearance in rat liver microsomes
# Assay type: ADME
# Assay context: read-out: CLH
Assay metric: microsomal CLint (µL/min/mg)

1) C[C@H](NC(=O)Cc1cc(F)cc(F)c1)C(=O)N[C@H]1CC=C[C@H](c2ccccc2)N(C)C1=O | 339
2) C[C@H](NC(=O)[C@@H](N)Cc1ccccc1)C(=O)N[C@H]1CC=C[C@H](C2CCCCC2)N(C)C1=O | 689
3) C[C@H](NC(=O)[C@@H](N)c1cccc(Cl)c1)C(=O)N[C@H]1CC=C[C@H](C2CCCCC2)N(C)C1=O | 159
4) C[C@H](NC(=O)[C@@H](N)c1ccccc1)C(=O)N[C@H]1CC=C[C@H](C2CCCCC2)N(C)C1=O | 93.5
5) C[C@H](NC(=O)OCc1ccccc1)C(=O)N[C@H]1CC=C[C@H](c2ccccc2)N(C)C1=O | 720

* * *

# Method notes: Inhibition of Haemophilus influenzae methionine aminopeptidase
Assay metric: IC50 (µM)

1) C[C@H](NC(=O)Cc1cc(F)cc(F)c1)C(=O)N[C@H]1CC=C[C@H](c2ccccc2)N(C)C1=O | 60
2) C[C@H](NC(=O)[C@@H](N)c1ccccc1)C(=O)N[C@H]1CC=C[C@H](C2CCCCC2)N(C)C1=O | 6.7
3) C[C@H](NC(=O)[C@@H](N)c1cccc(Cl)c1)C(=O)N[C@H]1CC=C[C@H](C2CCCCC2)N(C)C1=O | 1.1
4) CN1C(=O)[C@@H](NC(=O)[C@H](CO)NC(=O)OCc2ccccc2)CC=C[C@@H]1c1ccccc1 | 132
5) C[C@H](NC(=O)[C@@H](N)Cc1ccccc1)C(=O)N[C@H]1CC=C[C@H](C2CCCCC2)N(C)C1=O | 4.7

* * *

# Method notes: Inhibition of Streptococcus pneumoniae methionine aminopeptidase
pIC50: −log10 of the molar value.
Assay metric: pIC50

1) CC(C)[C@H](NC(=O)OCc1ccccc1)C(=O)N[C@H]1CC=C[C@H](c2ccccc2)N(C)C1=O | < 3.70
2) CC(=O)N[C@@H](C)C(=O)N[C@H]1CC=C[C@H](c2ccccc2)N(C)C1=O | < 3.70
3) C[C@H](N)C(=O)N[C@@H](C)C(=O)N[C@H]1CC=C[C@H](C2CCCCC2)N(C)C1=O | < 3.70

* * *

# Method notes: Inhibition of Haemophilus influenzae methionine aminopeptidase
Assay metric: IC50

1) CC(C)[C@H](NC(=O)OCc1ccccc1)C(=O)N[C@H]1CC=C[C@H](c2ccccc2)N(C)C1=O | > 200 µM
2) CN1C(=O)[C@@H](NC(=O)C(C)(C)NC(=O)OCc2ccccc2)CC=C[C@@H]1c1ccccc1 | > 200 µM
3) C[C@H](NC(=O)OCc1ccccc1)C(=O)N[C@H]1CC=C[C@@H](c2ccccc2)N(C)C1=O | > 200 µM
